# subject.of.test: T1, human IL-13 variant (R130Q) (human, UniProt P35225 35-146)
# T1 construct: called R110Q in the assay descriptions (mature numbering); also called h IL-13v; hIL-13v
# assay.comment: SPR (Biacore), mAb captured, IL-13 as analyte
measured.endpoint: Kd (nM)

INSERT INTO measurements (binder, measured_endpoint, result_number) VALUES
  ('6C8 (antibody, V domains shown) VH: QVQLKESGPGLVAPSQSLSITCTVSEFSLTGSSVNWVRQPPGKGLEWLGMIWGDGRIDYNSALKSRLSISKDNSKSQVFLKMNSLQTDDTARYYCARDGYYPYAMNYWGQGTSVTVSS VL: NIVLTQSPASLAVSLGQRATISCRASESVDSYGNSFMHWYQQKPGQPPKLLIYLASNLESGVPARFSGSGSRADFTLTIDPVEADDAATYYCQQNNENPRTFGGGTKLEIKR', 'Kd', 0.403),
  ('5G1 (antibody, V domains shown) VH: QVQLQQSGAELARPGTSVKLSCKASGYTFTTYGVSWVKQRTGQGLEWIGEIYPGNYNTYYNEKFRGKATLTADKSSSTAYMQLSSLTSEDSAVYFCSRWRTSYFSDYGYFDYWGQGTTLTVSS VL: DVVMTQTPLSLPVSLGDQASISCRSSQSLVHSHGNTYLHWYLQKPGQSPKLLIYTVSNRFSGVPDRFSGSGSGTDFTLKISRVEAEDLGVYFCSQSTHVPYTFGGGTKLEIKR', 'Kd', 0.13),
  ('22D10 (antibody, V domains shown) VH: QVQLQQSGDDLVKPGASVKLSCKASGYTFTSYWINWIKQRPGQGLEWIGHIAPGSGETYDNEMFKDKAKLTVDTSSSTAYIHLSSLSSEDSAVYFCARGSFTFFYAMDYWGQGTSVTVSS VL: DVLMTQTPLSLPVSLGDQASISCRSSQNIVHSNGKTYLEWYLQRPGQSPKLLIYKVSNRFSGVPDRFSGSGSGTDFTLKISRVEAEDLGVYYCFQGSHVPYTFGGGTKLEIKR', 'Kd', 0.632);
